B1: C10orf62 (parent)
chain: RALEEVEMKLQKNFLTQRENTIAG

variants of: B1; assay: protein stability index of a GFP-peptide fusion (GPS, HEK-293T) (PSI 1-6); higher = more stable; conditions: c terminus: a fixed tail appended;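 also: lentivirally expressed fusions sorted by FACS into six bins by GFP to DsRed ratio, PSI derived from sequencing read proportions per bin multiplied by bin number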
Each entry falls in a class defined on protein stability index; the bands are bottom end (below 3), midrange (3 to below 4), top end (4 or more)

Query: Kindly state the category for this variant: F14A
Reply: top end

Query: Determine which band this variant sits in: E5M
Reply: bottom end

Query: Classify this variant: A23G
Reply: midrange

Further cases:
Query: Which protein stability index category applies to Q17S here?
Reply: midrange

Query: Form: Item = L10A ; Class = ?
Reply: top end

Query: Category of A23D , please.
Reply: top end

Query: Assign a category based on measured protein stability index for L3Y and give only the class name.
Reply: midrange

Query: Lab log: T21F — assign protein stability index category
Reply: bottom end

Query: In plain terms, what class is T21E ?
Reply: top end

Query: The entry to classify is A2F ; which class holds it?
Reply: bottom end

Query: Textbook exercise: identify the category of the variant given here, N13Q , according to its measured value.
Reply: midrange

Query: Record L10P — which class?
Reply: top end

Query: Bin this entry: N20Q
Reply: midrange

Query: Tag the class for E19G
Reply: midrange

Query: Band for I22R ?
Reply: midrange

The reported numbers originate from the supplement of paper PMC10567573.
